# Test system: breast MCF-7 cells, parental
# test name: Cell proliferation assay - cytotoxicity (XTT), MCF-7 parental
# Type: cell-based
# setup conditions: Homo sapiens, MCF7, 96-120 hours of drug exposure
quantity: IC50 (µM)
Lab book: enter the figure in µM, no units written.

[Q] // map Nc1ccn([C@@H]2O[C@H](CO)[C@@H](O)C2(F)F)c(=O)n1 [dFdC, 2′,2′-difluorodeoxycytidine] to recorded IC50 (system: breast MCF-7 cells, parental)
[A] 3.12

###

# Test system: Glioblastoma U-118-MG cells, parental
# test name: Cell proliferation assay - cytotoxicity (XTT), U-118-MG parental
# Format: cell-based
# setup conditions: Homo sapiens, 96-120 hours of drug exposure
quantity: IC50 (nM)
Quick reminder: number only, in nM, skip the unit.

[Q] Using the record for `Nc1ccn([C@@H]2O[C@H](CO)[C@@H](O)C2(F)F)c(=O)n1` , report its IC50.
[A] 6.2

###

# Tested on: Glioblastoma U-118-MG cells transduced with PZG190 (AtdCGK)
# test name: Cell proliferation assay - cytotoxicity (XTT), U-118-MG transduced with PZG190
# Assay type: cell-based
# setup conditions: Homo sapiens; U-118-MG PZG190; 96-120 hours of drug exposure
quantity: IC50 (pM)
Report the value in pM with no unit label.

[Q] Short answer please: IC50, Glioblastoma U-118-MG cells transduced with PZG190 (AtdCGK), entry `Nc1ccn([C@@H]2O[C@H](CO)[C@@H](O)C2(F)F)c(=O)n1`
[A] 300

Cited source: patent US7666639B2
